Entries and their measured Plant response rating (scale of 0 to 100), Foxtail, Green follow.
tested on: foxtail, green (green foxtail, Setaria viridis); assay: Test D controlled growth environment herbicide test, pre- and postemergence; assay type: in vivo; conditions: Preemergence, 31 g ai/ha
property.label: Plant response rating (scale of 0 to 100), Foxtail, Green

compound	assay.system	test.value
Cn1nc(Br)c(O)c(-c2cccc3ccccc23)c1=O [Compound 20]	foxtail, green (green foxtail, Setaria viridis)	25
Cc1nn(C)c(=O)c(-c2ccc(Br)c3ccccc23)c1O [Compound 75]	foxtail, green (green foxtail, Setaria viridis)	15
Cc1nn(C)c(=O)c(-c2cccc3ccc(Br)cc23)c1O [Compound 126]	foxtail, green (green foxtail, Setaria viridis)	20
Cc1cc2ccccc2c(-c2c(O)c(C)nn(C)c2=O)c1C [Compound 34]	foxtail, green (green foxtail, Setaria viridis)	55
COC(=O)Oc1c(C)nn(C)c(=O)c1-c1c(C)sc2ccc(C)cc12 [Compound 80]	foxtail, green (green foxtail, Setaria viridis)	20
Cc1ccc2sc(C)c(-c3c(OC(=O)OC(C)C)c(C)nn(C)c3=O)c2c1 [Compound 66]	foxtail, green (green foxtail, Setaria viridis)	15
Cc1ccc2sc(Br)c(-c3c(O)c(C)nn(C)c3=O)c2c1 [Compound 79]	foxtail, green (green foxtail, Setaria viridis)	55
CCc1sc2c(C)cc(C)cc2c1-c1c(O)c(C)nn(C)c1=O [Compound 57]	foxtail, green (green foxtail, Setaria viridis)	10

====

Listed here are molecules together with their documented Plant response rating, Kochia.
tested on: kochia (Kochia scoparia); test: Test C greenhouse herbicide test, postemergence; assay type: in vivo; details: Postemergence, 250 g ai/ha; scale 0 to 100, 0 no effect, 100 complete control; 13 to 15 d
property.label: Plant response rating, Kochia

molecule	test.value
CCc1sc2ccc(C)cc2c1-c1c(O)c(C)nn(C)c1=O [Compound 47]	98
Cc1cc(C)c2ccccc2c1-c1c(O)c(C)nn(C)c1=O [Compound 21]	100
CCC(=O)Oc1c(C)nn(C)c(=O)c1-c1ccc(F)c2ccccc12 [Compound 113]	100
CCc1oc2ccc(C)cc2c1-c1c(O)c(C)nn(C)c1=O [Compound 10]	95
Cn1nc(Br)c(O)c(-c2cccc3ccccc23)c1=O [Compound 20]	100
COC(=O)Oc1c(C)nn(C)c(=O)c1-c1c(C)sc2ccc(C)cc12 [Compound 80]	90
Cc1ccc2ccccc2c1-c1c(O)c(C(F)(F)F)nn(C)c1=O [Compound 102]	50
CC(=O)Oc1c(C)nn(C)c(=O)c1-c1c(C)sc2ccc(Cl)cc12 [Compound 108]	100
Cc1ccc2sc(Br)c(-c3c(O)c(C)nn(C)c3=O)c2c1 [Compound 79]	90
Cc1ccc2ccccc2c1-c1c(O)c(Br)nn(C)c1=O [Compound 23]	100
COC(=O)Oc1c(C)nn(C)c(=O)c1-c1ccc(Br)c2ccccc12 [Compound 145]	100

====

The molecules listed here are annotated with their Plant response rating, Waterhemp.
test system: waterhemp (common waterhemp, Amaranthus rudis); assay: Test C greenhouse herbicide test, pre- and postemergence; type: in vivo; conditions: Postemergence, 250 g ai/ha; scale 0 to 100, 0 no effect, 100 complete control; 13 to 15 d
property.label: Plant response rating, Waterhemp

smiles.record	assay.system	property.label	test.value
Cc1nn(C)c(=O)c(-c2ccc(Cl)c3ccccc23)c1O	waterhemp (common waterhemp, Amaranthus rudis)	Plant response rating, Waterhemp	100
CC(=O)Oc1c(C)nn(C)c(=O)c1-c1c(C)sc2ccc(Cl)cc12	waterhemp (common waterhemp, Amaranthus rudis)	Plant response rating, Waterhemp	98
CCC(=O)Oc1c(C)nn(C)c(=O)c1-c1ccc(Br)c2ccccc12	waterhemp (common waterhemp, Amaranthus rudis)	Plant response rating, Waterhemp	100
CCCC(=O)Oc1c(C)nn(C)c(=O)c1-c1c(C)sc2ccc(C)cc12	waterhemp (common waterhemp, Amaranthus rudis)	Plant response rating, Waterhemp	98
Cc1ccc2sc(C)c(-c3c(OC(=O)OC(C)C)c(C)nn(C)c3=O)c2c1	waterhemp (common waterhemp, Amaranthus rudis)	Plant response rating, Waterhemp	100
CCc1oc2ccc(C)cc2c1-c1c(O)c(C)nn(C)c1=O	waterhemp (common waterhemp, Amaranthus rudis)	Plant response rating, Waterhemp	90
Cc1ccc2ccccc2c1-c1c(OC(=O)OC(C)C)c(C)nn(C)c1=O	waterhemp (common waterhemp, Amaranthus rudis)	Plant response rating, Waterhemp	85
Cc1nn(C)c(=O)c(-c2c(C)sc3ccc(Br)cc23)c1O	waterhemp (common waterhemp, Amaranthus rudis)	Plant response rating, Waterhemp	90
CCC(=O)Oc1c(C)nn(C)c(=O)c1-c1c(C)ccc2ccccc12	waterhemp (common waterhemp, Amaranthus rudis)	Plant response rating, Waterhemp	90
